Assign Lck Activation above control, 10 µM to each entry below.
- Target: Lymphocyte-specific protein tyrosine kinase (Lck), enzyme in cell-free kinase assay (human, UniProt P06239 1-509, limits assumed)
- Sequence (P06239 whole entry): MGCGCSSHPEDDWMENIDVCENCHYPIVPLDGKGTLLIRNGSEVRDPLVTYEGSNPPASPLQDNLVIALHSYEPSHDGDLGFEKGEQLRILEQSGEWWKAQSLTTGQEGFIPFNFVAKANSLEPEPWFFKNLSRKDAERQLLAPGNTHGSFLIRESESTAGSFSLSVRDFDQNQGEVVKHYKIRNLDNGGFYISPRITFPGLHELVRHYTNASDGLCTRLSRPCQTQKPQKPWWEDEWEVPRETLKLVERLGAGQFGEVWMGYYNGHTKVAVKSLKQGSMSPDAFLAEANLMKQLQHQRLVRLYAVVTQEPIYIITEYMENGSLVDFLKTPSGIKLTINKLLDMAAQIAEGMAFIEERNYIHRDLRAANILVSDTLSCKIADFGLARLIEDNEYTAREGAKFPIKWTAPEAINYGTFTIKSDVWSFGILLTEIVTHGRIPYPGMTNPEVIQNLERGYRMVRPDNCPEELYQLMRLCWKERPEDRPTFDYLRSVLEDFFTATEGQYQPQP
- Procedure text: cell-based or functional assay
Answer format: numeric, % implied, no suffix.

Query :: If you can, please state the reported Lck Activation above control, 10 µM value of "RVKVKVVVV" .
Result :: 501

Query :: Next up: "RYLPNKAKS"
Result :: 0

Query :: Next up: "RSAAKNPLY"
Result :: 0

Query :: Next up: "RSKAANPLY"
Result :: 0
